B1: Homeobox protein cut-like 1, residues 548 to 629; numbered along this chain, P39880 (parent)
chain: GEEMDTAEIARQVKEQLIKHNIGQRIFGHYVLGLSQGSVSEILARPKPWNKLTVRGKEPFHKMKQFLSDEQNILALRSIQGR

Variants of: B1
Assay: abundance fitness (aPCA) (normalised: wild type 0, dead -1); higher = more abundant; growth selection in yeast, the domain comes from the species named
Conditions: Homo sapiens
Listing: abundance fitness of selected variants

{"VARIANT_NOTATION": "N21K", "abundance fitness": -0.055}
{"VARIANT_NOTATION": "S68E", "abundance fitness": 0.013}
{"VARIANT_NOTATION": "H29E", "abundance fitness": 0.06}
{"VARIANT_NOTATION": "E41S", "abundance fitness": -0.265}
{"VARIANT_NOTATION": "A75F", "abundance fitness": -0.066}
{"VARIANT_NOTATION": "I73G", "abundance fitness": -0.44}
{"VARIANT_NOTATION": "L76I", "abundance fitness": -0.291}
{"VARIANT_NOTATION": "K19V", "abundance fitness": -0.271}
{"VARIANT_NOTATION": "G81T", "abundance fitness": 0.037}
{"VARIANT_NOTATION": "K47N", "abundance fitness": -0.339}
{"VARIANT_NOTATION": "S38I", "abundance fitness": -0.008}
{"VARIANT_NOTATION": "F27S", "abundance fitness": -0.906}
{"VARIANT_NOTATION": "F66A", "abundance fitness": -0.758}
{"VARIANT_NOTATION": "V39A", "abundance fitness": -0.177}
{"VARIANT_NOTATION": "H61Y", "abundance fitness": 0.067}
{"VARIANT_NOTATION": "A75K", "abundance fitness": 0.095}
{"VARIANT_NOTATION": "I26L", "abundance fitness": -0.002}
{"VARIANT_NOTATION": "K19F", "abundance fitness": -0.187}
{"VARIANT_NOTATION": "M4K", "abundance fitness": -0.36}
{"VARIANT_NOTATION": "E2I", "abundance fitness": -0.261}
{"VARIANT_NOTATION": "E70C", "abundance fitness": -0.118}
{"VARIANT_NOTATION": "K57H", "abundance fitness": -0.426}
{"VARIANT_NOTATION": "T6V", "abundance fitness": -0.839}
{"VARIANT_NOTATION": "R25A", "abundance fitness": 0.102}
{"VARIANT_NOTATION": "L74H", "abundance fitness": 0.007}
{"VARIANT_NOTATION": "D69E", "abundance fitness": -0.134}
{"VARIANT_NOTATION": "I9W", "abundance fitness": -0.82}
{"VARIANT_NOTATION": "G37A", "abundance fitness": 0.037}
{"VARIANT_NOTATION": "Q65W", "abundance fitness": -0.201}
{"VARIANT_NOTATION": "A44N", "abundance fitness": 0.073}
{"VARIANT_NOTATION": "H61Q", "abundance fitness": 0.04}
{"VARIANT_NOTATION": "Q65P", "abundance fitness": -0.933}
{"VARIANT_NOTATION": "E58S", "abundance fitness": -0.252}
